Test: Approximate solubility of freebase Compound A in 16 solvents at RT
Format: physicochemical
Details: ethanol, organic solvent or mixture, EtOH
observable: solubility

Request: Name the reported solubility value associated with the compound `C[C@@H]1Cc2c([nH]c3ccccc23)[C@@H](c2c(F)cc(NC3CN(CCCF)C3)cc2F)N1CC(F)(F)CO`
Result: > 60 mg/mL

====

Experiment: Oral bioavailability in monkeys
Conditions: monkey, in vivo
Counter-ions that a name gives are not always drawn.
observable: bioavailability
Answers without a unit are incomplete; give the number and then its unit.

Request: Name the reported bioavailability value associated with the compound C[C@@H]1Cc2c([nH]c3ccccc23)[C@@H](c2c(F)cc(NC3CN(CCCF)C3)cc2F)N1CC(F)(F)CO [Compound B, tartrate]
Result: 17%
